# experimental system: Glutaminase kidney isoform, mitochondrial (Homo sapiens)
# Sequence (O94925 whole entry, canonical isoform): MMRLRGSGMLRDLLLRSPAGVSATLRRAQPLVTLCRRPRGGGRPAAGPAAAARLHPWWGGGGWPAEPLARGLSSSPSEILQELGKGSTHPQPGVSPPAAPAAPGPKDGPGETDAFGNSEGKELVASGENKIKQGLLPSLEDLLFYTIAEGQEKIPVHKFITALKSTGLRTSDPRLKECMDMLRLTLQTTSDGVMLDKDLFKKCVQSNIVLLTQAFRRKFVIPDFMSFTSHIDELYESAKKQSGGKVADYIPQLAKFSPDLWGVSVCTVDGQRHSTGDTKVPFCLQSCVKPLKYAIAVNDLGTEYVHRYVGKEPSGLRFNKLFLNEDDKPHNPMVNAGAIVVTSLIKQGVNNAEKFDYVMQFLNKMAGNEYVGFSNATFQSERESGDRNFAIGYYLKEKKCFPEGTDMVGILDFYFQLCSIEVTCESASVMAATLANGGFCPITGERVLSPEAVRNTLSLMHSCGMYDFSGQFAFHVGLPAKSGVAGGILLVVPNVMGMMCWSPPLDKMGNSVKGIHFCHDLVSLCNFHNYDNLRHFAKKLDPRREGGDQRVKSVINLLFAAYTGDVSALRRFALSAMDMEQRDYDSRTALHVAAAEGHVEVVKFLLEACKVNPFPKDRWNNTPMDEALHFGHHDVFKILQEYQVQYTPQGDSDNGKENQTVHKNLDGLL
# assay summary: Inhibition of GLS1 (unknown origin)
Measured log10 IC50 of individual entries
measure: log10 IC50 (log10 of the value in nM)

INSERT INTO assay_data (query_smiles, measure, test_result) VALUES
  ('O=C1Cc2cccc(c2)OCCOCCOc2cccc(c2)CC(=O)Nc2nnc(s2)CCCCc2ccc(nn2)N1', 'log10 IC50', 2.60),
  ('O=C1Cc2cccc(c2)OCCOc2cccc(c2)CC(=O)NC2=NN=C(CCCCC3=NN=C(N1)S3)S2', 'log10 IC50', 2.99),
  ('O=C1Cc2cccc(c2)OCCCOCCCOc2cccc(c2)CC(=O)Nc2ccc(nn2)CCCCc2ccc(nn2)N1', 'log10 IC50', 2.49),
  ('O=C1Cc2cccc(c2)OCCOCCOc2cccc(c2)CC(=O)Nc2ccc(nn2)CCCCc2ccc(nn2)N1', 'log10 IC50', 2.63),
  ('O=C1Cc2cccc(c2)OCCCOCCCOc2cccc(c2)CC(=O)Nc2nnc(s2)CCCCc2ccc(nn2)N1', 'log10 IC50', 2.90),
  ('O=C1Cc2cccc(c2)OCCCCCCCOc2cccc(c2)CC(=O)Nc2nnc(s2)CCCCc2ccc(nn2)N1', 'log10 IC50', 3.48),
  ('O=C1Cc2cccc(c2)OCCOCCOc2cccc(c2)CC(=O)NC2=NN=C(CCCC3=NN=C(N1)S3)S2', 'log10 IC50', 3.60),
  ('O=C1Cc2cccc(c2)OCCOCCOc2cccc(c2)CC(=O)NC2=NN=C(CCCCC3=NN=C(N1)S3)S2', 'log10 IC50', 3.30);
